TESTED_TARGET: T1, Mtr4 R1030A (Saccharomyces cerevisiae, UniProt P47047 1-1073, R1030A)
T1 sequence: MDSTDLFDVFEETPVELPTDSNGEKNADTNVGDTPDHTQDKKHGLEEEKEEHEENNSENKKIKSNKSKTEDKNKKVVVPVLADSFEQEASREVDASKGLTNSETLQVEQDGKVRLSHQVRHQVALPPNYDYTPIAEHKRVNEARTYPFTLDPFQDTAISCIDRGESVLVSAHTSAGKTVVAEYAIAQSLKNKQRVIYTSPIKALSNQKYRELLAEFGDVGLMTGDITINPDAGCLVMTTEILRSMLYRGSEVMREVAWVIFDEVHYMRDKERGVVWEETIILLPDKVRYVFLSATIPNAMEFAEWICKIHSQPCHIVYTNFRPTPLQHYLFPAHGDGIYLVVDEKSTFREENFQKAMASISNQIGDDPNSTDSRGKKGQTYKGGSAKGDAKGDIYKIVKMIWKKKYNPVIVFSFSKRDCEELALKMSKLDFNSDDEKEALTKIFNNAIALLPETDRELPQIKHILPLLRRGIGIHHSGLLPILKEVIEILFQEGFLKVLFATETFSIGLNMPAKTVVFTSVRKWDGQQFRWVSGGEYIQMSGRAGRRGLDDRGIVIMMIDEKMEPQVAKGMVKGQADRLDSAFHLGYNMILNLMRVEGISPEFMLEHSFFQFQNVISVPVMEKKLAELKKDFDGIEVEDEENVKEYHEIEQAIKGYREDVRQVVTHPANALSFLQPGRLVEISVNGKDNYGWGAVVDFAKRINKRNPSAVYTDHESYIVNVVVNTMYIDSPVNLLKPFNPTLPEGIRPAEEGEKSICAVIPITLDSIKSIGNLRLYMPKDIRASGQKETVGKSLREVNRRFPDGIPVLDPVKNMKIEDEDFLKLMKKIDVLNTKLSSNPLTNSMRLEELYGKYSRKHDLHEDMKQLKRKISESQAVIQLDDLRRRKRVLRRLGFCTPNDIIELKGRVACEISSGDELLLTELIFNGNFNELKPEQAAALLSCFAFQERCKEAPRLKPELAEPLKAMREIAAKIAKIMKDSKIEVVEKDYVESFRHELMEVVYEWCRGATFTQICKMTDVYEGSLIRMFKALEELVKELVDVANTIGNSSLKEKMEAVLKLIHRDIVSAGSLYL
ASSAY_NAME: fluorescence anisotropy; 0.5 mM MgCl2; FA: 40 mM MOPS pH 6.5, 100 mM NaCl, 0.5 mM MgCl2, 5% glycerol, 0.01% NP-40 substitute, 2 mM DTT, 60 nM RNA, 30 C; EMSA conditions not in material
RUN_CONDITIONS: protein: recombinant; tags: vector pET151/D-TOPO; label: 3' fluorescein on R16; 3' overhang 6 nt (UAAAAA) on R22A, other end blunt; 16 bp
TEST_READOUT: Kd (nM)
// units = nM; emit number, no label

Query string: # input binder: poly(A) substrate R22A/R16, fluorescein (dsRNA) RNA 1: GCGUCUUUACGGUGCUUAAAAA RNA 2: AGCACCGUAAAGACGC ; wanted: its Kd
Result string: 2600
